Hey, just so you know, these numbers are from patent US20220162191A1.

Target: human IL-17AA (Homo sapiens, UniProt Q16552)
Sequence (Q16552 24-155) 1: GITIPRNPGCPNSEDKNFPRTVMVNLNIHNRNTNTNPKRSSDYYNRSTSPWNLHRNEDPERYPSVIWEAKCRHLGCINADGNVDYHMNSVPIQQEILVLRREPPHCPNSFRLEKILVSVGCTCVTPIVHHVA
Sequence (Q16552 24-155) 2: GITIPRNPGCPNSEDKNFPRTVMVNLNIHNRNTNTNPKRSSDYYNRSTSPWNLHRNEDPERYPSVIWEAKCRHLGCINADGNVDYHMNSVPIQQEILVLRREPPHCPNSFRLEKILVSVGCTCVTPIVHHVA
Assay: IL-8 release assay in human epithelial keratinocytes adult (HEKa)
Conditions: 3 ng/ml human IL-17AA + 10 ng/ml human TNFalpha, 68-72 h, IL-8 by HTRF, read-out: Rel EC50 L-8 release assay
Below, each entry is listed with its recorded EC50.
Quantity Name: EC50

Cc1n[nH]c(C)c1-c1ccc(NC(=O)[C@@H](NC(=O)C2(F)CC2)[C@@H]2CCCc3ccc(-c4cnn(C5CCOCC5)c4)cc32)cc1    < 100 nM
CC(C)n1cc(-c2ccc(Cl)c(C[C@H](NC(=O)CC3CCC3)C(=O)Nc3ccc(-c4nncn4C)cc3)c2)ccc1=O    > 1000 nM
Cn1cncc1-c1ccc(NC(=O)C(Cc2cc(-c3ccnc(N4CC5(COC5)C4)c3)ccc2Cl)NC(=O)c2ccnn2C)cc1 (stereo not drawn)    100 to 1000 nM
CN(C)[C@H]1CCN(c2cc(-c3ccc(Cl)c(CC(NC(=O)c4ccnn4C)C(=O)Nc4ccc(-c5cncn5C)cc4)c3)ccn2)C1 (stereo partly drawn)    100 to 1000 nM
CC(C)n1cc(-c2cccc(C(c3ccccc3)C(NC(=O)c3ccnn3C)C(=O)Nc3ccc(-c4cncn4C)cc3)c2)ccc1=O (single isomer, unassigned; diastereomer 2) [Example 232]    > 1000 nM
Cn1cnnc1-c1ccc(NC(=O)C(Cc2cc(-c3cccc(C4CC4)c3)ccc2Cl)NC(=O)c2ccnn2C)cc1 (stereo not drawn)    100 to 1000 nM
